experiment: inhibition of 3D7 malaria parasite growth – strain 3D7 (AID 2306);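 note: 0% = DMSO wells and 100% = chloroquine plus artemisinin control wells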; conditions: P. falciparum 3D7 erythrocytic growth, LDH absorbance, 72 h; at 2 µM; hits give high values
// reported growth inhibition for each item listed
# number only, unit % dropped from output

Guide cases for growth inhibition, answers given:
compound	growth inhibition [%]
COc1ccc(N2C(=O)C3C(C2=O)C2(C)c4ccccc4C3(C)c3ccccc32)c([N+](=O)[O-])c1 (stereo not drawn)	99
Cc1noc(C)c1S(=O)(=O)N(C)Cc1ccc(-c2ccc(Cl)cc2)o1	100
OCCN1CCN(Cc2cccc(-c3ccc(-c4nc5ccc(C(F)(F)F)cc5[nH]4)s3)c2)CC1	101
CCOc1c(C)cc(C(F)(F)F)cc1CNCCCNc1cc(=O)c2ccccc2[nH]1	97
CN(Cc1ccccc1)C1CCCN(c2cc(NC(=O)c3cccs3)ccn2)C1 (stereo not drawn)	88
Cc1noc(C)c1-c1ccc2c(Nc3ccc(C#N)cc3)c(C(N)=O)cnc2c1	97

# input Answer with the recorded growth inhibition for the compound listed here: O=C(NCCN1CCCC1)c1ccc(-c2ccc(-c3nc4ccc(C(F)(F)F)cc4[nH]3)s2)cc1
# output 97

# input Determine its reported growth inhibition: c1cc(CN2CCN(CCN3CCOCC3)CC2)cc(-c2cccc(-c3nc4ccccc4[nH]3)c2)c1
# output 100

* * *

molecular target: L-lactate dehydrogenase (Plasmodium falciparum (isolate CDC / Honduras)) (UniProt Q27743); experiment: PfLDH activity inhibition – cell lysate, 3D7 strain, counter-screen for P. falciparum growth inhibition project (AID 2304);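 note: 0% = vehicle and 100% = reference inhibitor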; details: P. falciparum 3D7 crude extract, LDH APAD/NBT absorbance; at 2 µM; hits give high values
Sequence (Q27743 whole entry, looked up): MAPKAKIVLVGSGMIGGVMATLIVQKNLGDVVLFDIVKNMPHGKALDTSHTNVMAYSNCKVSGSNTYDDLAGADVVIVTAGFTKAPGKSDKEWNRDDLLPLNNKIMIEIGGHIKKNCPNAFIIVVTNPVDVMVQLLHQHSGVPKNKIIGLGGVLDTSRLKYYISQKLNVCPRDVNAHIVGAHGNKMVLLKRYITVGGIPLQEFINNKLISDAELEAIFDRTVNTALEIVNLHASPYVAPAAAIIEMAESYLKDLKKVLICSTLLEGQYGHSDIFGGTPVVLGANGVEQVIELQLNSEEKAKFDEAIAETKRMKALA
# inhibition values compiled below
Expressed in %, but write only the number.

# input Assign inhibition to the following record: Cc1ccccc1C1CCN(C2CCC(NC(=O)c3ccc(-c4cccc(C(F)(F)F)c4)o3)CC2)CC1 (centres undefined)
# output -2

* * *

molecular target: L-lactate dehydrogenase (Plasmodium falciparum (isolate CDC / Honduras)); test: PfLDH activity inhibition – cell lysate, 3D7 strain, counter-screen for P. falciparum growth inhibition project (AID 2304);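 note: 0% = vehicle and 100% = reference inhibitor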; conditions: P. falciparum 3D7 crude extract, LDH APAD/NBT absorbance; at 2 µM; hits give high values
assayEndpoint: inhibition (%)
Numbers only here, please. The scale is %.

Before answering, review these 4 worked examples.
compound	assayEndpoint	readoutUnit	reportedValue
C=CCNC(=O)CCCN=C(N)N	inhibition	%	-1
CCCCCCNC(=O)C1Cc2c([nH]c3ccc(Br)cc23)C2(CCN(Cc3ccccc3)CC2)N1 (stereo not given)	inhibition	%	6
O=C(/C=C/c1ccc(Cl)c(Cl)c1)NCCCCCN1CCC(C(=O)Nc2cccc(Cl)c2)CC1	inhibition	%	-3
N#Cc1cncc(-c2nc3c(N4CCCC(N)C4)cccc3n2CCNCc2ccccc2)c1 (stereo not given)	inhibition	%	-1

For the next question, use this compound.
# input Return reported inhibition. Input compound: Cc1ccc(Nc2nc(NN=Cc3ccc(-c4ccc([N+](=O)[O-])cc4)o3)nc(N3CCOCC3)n2)cc1Cl
# output -1

* * *

test: inhibition of 3D7 malaria parasite growth – strain 3D7 (AID 2306);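 note: 0% = DMSO wells and 100% = chloroquine plus artemisinin control wells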; details: P. falciparum 3D7 erythrocytic growth, LDH absorbance, 72 h; at 2 µM; hits give high values
assayEndpoint: growth inhibition (%)
Please reply with the bare figure in % and do not write the unit itself.

Below, each entry is followed by its recorded growth inhibition result.
compound	growth inhibition [%]
CCc1ccc(CN2CCC(C(=O)Nc3ccc(-c4nc5ccccc5[nH]4)cc3)CC2)o1	99
Cc1[nH]nc2cc(F)c(-c3cc(OC[C@@H](N)Cc4ccccc4)cnc3-c3ccoc3)cc12	95
COc1ccccc1CCNc1nc(C)cc(N[C@@H](Cc2ccccc2)C(=O)NCc2cccc(F)c2)n1	99
CC1(C)N=C(N)N=C(N)N1c1ccc(Oc2ccc(Cl)cc2)c(Cl)c1	97

# input Output growth inhibition of COc1ccc(CC(=O)NC(CCCN2CCC3(CC2)OCc2ccccc23)c2ccc(Cl)c(Cl)c2)cc1 (centres undefined)
# output 83

# input Supply growth inhibition value. Item: CCCNCc1ccc(-c2ccc(CN(CCOC)C(=O)CC3CCCC3=O)cc2)nc1 (centres undefined)
# output 93

# input For COc1ccc(-c2c(-c3ccc(OCc4ccccc4)cc3O)n[nH]c2C(F)(F)F)cc1 , write its growth inhibition.
# output 93

# input Read the entry COc1ccc(C2CC(c3cccs3)=NN2C(=O)CNc2cccc(C#N)c2)cc1OC (centres undefined) and write its reported growth inhibition.
# output 87

# input Indicate its recorded growth inhibition; the compound in question is CC(C)c1cc(Oc2c(I)cc(CCN=C(N)N)cc2I)ccc1O
# output 98

Source of measurements: PubChem BioAssay
